Test: self-splicing fitness, log relative to wild type (ln ratio); higher = more splicing; Tetrahymena group I intron in knt gene, E. coli kanamycin selection, DiMSum; sequences stand for … in CUCUCU…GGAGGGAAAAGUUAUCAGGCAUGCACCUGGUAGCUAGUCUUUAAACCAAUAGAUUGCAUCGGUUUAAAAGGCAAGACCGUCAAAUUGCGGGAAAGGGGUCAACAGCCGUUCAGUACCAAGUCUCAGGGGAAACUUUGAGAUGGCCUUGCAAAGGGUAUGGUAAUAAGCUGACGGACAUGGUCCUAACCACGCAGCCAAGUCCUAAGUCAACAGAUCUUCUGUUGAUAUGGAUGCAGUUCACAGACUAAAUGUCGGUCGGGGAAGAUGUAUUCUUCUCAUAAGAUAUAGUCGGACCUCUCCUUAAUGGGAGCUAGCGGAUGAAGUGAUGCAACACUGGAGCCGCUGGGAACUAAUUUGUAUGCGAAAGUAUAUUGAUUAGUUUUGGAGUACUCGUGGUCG;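 also: selection with 25 µg/mL kanamycin versus none on LB agar overnight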
Details: 30 °C
Categorize each record by its self-splicing fitness (ln) using I (below -3), II (-3 to below -2), III (-2 or more)

Lab log: `ACGAAGCAAUAUUACGUCUG` — assign self-splicing fitness (ln) category III

Another: `UUAGAGCAAUAUUACGGAGU` I

Another: `GAGGAGCAAUAUUACGUUUA` III

Another: `AAGGAGCAAUAUUACGAGUC` I

Another: `GCCAAGCAAUAUUACGGCUA` III

Another: `UAUCAGCAAUAUUACGUUAG` III

Another: `ACGAAGCAAUAUUACGUGUG` II
